Collected set of pIC50 measured with Liver carboxylesterase 1 (Homo sapiens, UniProt P23141) across studies.
Sequence (P23141 whole entry): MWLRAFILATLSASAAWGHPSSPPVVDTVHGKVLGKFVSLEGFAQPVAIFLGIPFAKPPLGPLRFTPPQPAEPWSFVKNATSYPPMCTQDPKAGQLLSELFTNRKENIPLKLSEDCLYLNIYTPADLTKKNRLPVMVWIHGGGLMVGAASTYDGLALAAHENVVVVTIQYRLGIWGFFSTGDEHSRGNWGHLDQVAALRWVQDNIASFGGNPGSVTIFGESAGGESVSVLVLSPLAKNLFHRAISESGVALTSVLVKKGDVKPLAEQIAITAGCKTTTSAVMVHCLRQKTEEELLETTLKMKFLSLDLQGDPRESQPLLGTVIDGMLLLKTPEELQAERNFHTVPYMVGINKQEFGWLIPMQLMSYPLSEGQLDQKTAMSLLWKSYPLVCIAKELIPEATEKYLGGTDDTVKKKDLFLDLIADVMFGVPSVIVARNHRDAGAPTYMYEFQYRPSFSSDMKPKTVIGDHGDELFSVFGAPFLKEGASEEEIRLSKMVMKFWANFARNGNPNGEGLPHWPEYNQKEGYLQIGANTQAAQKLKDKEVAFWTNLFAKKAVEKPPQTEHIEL
pIC50: −log10 of the molar value.
Response field class: enum, chosen by comparing pIC50 against band 1 (below 5), band 2 (5 to below 7), band 3 (7 or more)

Q. Pick a category. Item: O=C(CCCCCc1ccccc1)c1nc2ccccc2o1
A. band 3

Q. Assign a bin to O=C(CCc1ccc(-c2ccccc2)cc1)c1ncc(-c2ccccn2)o1
A. band 2

Q. Returns: class label. Input: N#Cc1ccnc(-c2cnc(C(=O)CCCCCCc3ccccc3)o2)c1
A. band 2

Q. Which bin, given its pIC50, does CCCCCCCC/C=C\CCCCCCCC(=O)c1nnc(-c2ccccc2)o1 occupy?
A. band 1

Q. Determine which band this compound sits in: O=C(CCCCCCc1ccccc1)c1noc(-c2ccccn2)n1
A. band 2

Q. Each compound maps to one class by pIC50. Which class for O=C(CCCCCCc1ccccc1)C(F)(F)F ?
A. band 3

Q. Class for O=C(CCCCCCc1ccccc1)c1nnc(-c2ccncc2)o1 ?
A. band 3

Q. Quick check: band for O=C(O)c1cnc(C(=O)CCCCCCc2ccccc2)o1
A. band 2

Q. Form: Item = CCOC(=O)[C@@]1(C)CC[C@]2(C)CC[C@]3(C)C(=CC[C@@H]4[C@@]5(C)CC[C@H](O)C(C)(C)[C@@H]5CC[C@]43C)[C@@H]2C1 ; Class = ?
A. band 1
